System: UO-31
test.summary: NCI 60-cell line growth inhibition assay
Assay type: cell-based
measurement.parameters: Homo sapiens; UO-31 (Renal)
measurement.name: GI50 (nM)
Numbers only here, please. The scale is nM.

Take a look at these entries with their results.
cpd.smiles: CC[C@H](CO)Nc1nc(NCc2ccc(-c3ccc(OC)cc3)cc2)c2ncn(C(C)C)c2n1
measurement.name: GI50
reported: 2800
--
cpd.smiles: CC(C)n1cnc2c(NCc3ccc(-c4ccsc4)cc3)nc(N[C@H]3CC[C@H](N)CC3)nc21
measurement.name: GI50
reported: 63

Alright, here's another compound for you.
# GI50 lookup, item CC(=O)N[C@H]1CC[C@H](Nc2nc(NCc3ccc(-c4ccccc4)nc3)c3ncn(C(C)C)c3n2)CC1
16

###

Test system: A549/ATCC
test.summary: NCI 60-cell line growth inhibition assay
Type: cell-based
measurement.parameters: Homo sapiens; Non-Small Cell Lung, A549/ATCC
Listing of recorded GI50 by entry.
Numbers only here, please. The scale is nM.

# GI50 lookup, item CC[C@H](CO)Nc1nc(NCc2ccc(-c3ccccn3)cc2)c2ncn(C(C)C)c2n1
30

# GI50 lookup, item CC[C@H](CO)Nc1nc(NCc2ccc(-c3ccccc3)cc2)c2ncn(C(C)C)c2n1
30

# GI50 lookup, item CC[C@H](CO)Nc1nc(NCc2ccc(-c3cccc(C(F)(F)F)c3)cc2)c2ncn(C(C)C)c2n1
130

# GI50 lookup, item C=Cc1ccc(-c2ccc(CNc3nc(N[C@H](CC)CO)nc4c3ncn4C(C)C)cc2)cc1
4600

###

Listing of recorded GI50 by entry.
Tested on: SF-268
test.summary: NCI 60-cell line growth inhibition assay
Assay type: cell-based
measurement.parameters: Homo sapiens; SF-268 (CNS)

Take a look at these entries with their results.
molecule: CC(=O)N[C@H]1CC[C@H](Nc2nc(NCc3ccc(-c4ccccc4)nc3)c3ncn(C(C)C)c3n2)CC1
target.or.system: SF-268
GI50: < 0.01 µM
--
molecule: Cn1cnc2c(NCc3ccccc3)nc(NCCO)nc21 [Olomoucine, reference compound]
target.or.system: SF-268
GI50: 50 µM
--
molecule: CC(=O)N[C@H]1CC[C@H](Nc2nc(NCc3ccc(-c4ccccn4)cc3)c3ncn(C(C)C)c3n2)CC1
target.or.system: SF-268
GI50: < 0.01 µM
--
molecule: CC[C@H](CO)Nc1nc(NCc2ccc(-c3cccc([N+](=O)[O-])c3)cc2)c2ncn(C(C)C)c2n1
target.or.system: SF-268
GI50: < 0.01 µM
--
molecule: CC(C)n1cnc2c(NCc3ccc(-c4ccsc4)cc3)nc(N[C@H]3CC[C@H](N)CC3)nc21
target.or.system: SF-268
GI50: < 0.005 µM

Alright, here's another molecule for you.
Param readout = GI50; param system = SF-268; param query = CC[C@H](CO)Nc1nc(NCc2ccc(-c3ccc(OC)cc3)cc2)c2ncn(C(C)C)c2n1 ; response: value
3 µM

###

Listing of recorded GI50 by entry.
Test system: SF-295
test.summary: NCI 60-cell line growth inhibition assay
Format: cell-based
measurement.parameters: Homo sapiens; SF-295 (CNS)
Numbers only here, please. The scale is nM.

# GI50 lookup, item CC[C@H](CO)Nc1nc(NCc2ccc(-c3ccc(OC)cc3)cc2)c2ncn(C(C)C)c2n1 [Compound 43]
4000

# GI50 lookup, item CC[C@H](CO)Nc1nc(NCc2ccc(-c3cccc([N+](=O)[O-])c3)cc2)c2ncn(C(C)C)c2n1 [Compound 48]
240

# GI50 lookup, item Cn1cnc2c(NCc3ccccc3)nc(NCCO)nc21 [Olomoucine, reference compound]
79000

# GI50 lookup, item CC(=O)N[C@H]1CC[C@H](Nc2nc(NCc3ccc(-c4ccccc4)nc3)c3ncn(C(C)C)c3n2)CC1 [Compound 87]
47

# GI50 lookup, item CC(C)n1cnc2c(NCc3ccc(-c4ccsc4)cc3)nc(N[C@H]3CC[C@H](N)CC3)nc21 [Compound 12]
18

# GI50 lookup, item CC(C)n1cnc2c(NCc3ccc(-c4ccccn4)cc3)nc(N[C@H]3CC[C@H](N)CC3)nc21 [Compound 78]
210

###

Tested on: MDA-N
test.summary: NCI 60-cell line growth inhibition assay
Format: cell-based
measurement.parameters: Homo sapiens; MDA-N (Breast)
measurement.name: GI50

Take a look at these entries with their results.
molecule: Cn1cnc2c(NCc3ccccc3)nc(NCCO)nc21 [Olomoucine, reference compound]
GI50: 79000 nM
//
molecule: CC(C)n1cnc2c(NCc3ccc(-c4ccccn4)cc3)nc(N[C@H]3CC[C@H](N)CC3)nc21
GI50: < 10 nM
//
molecule: CC(=O)N[C@H]1CC[C@H](Nc2nc(NCc3ccc(-c4ccccn4)cc3)c3ncn(C(C)C)c3n2)CC1
GI50: < 10 nM
//
molecule: CC(C)n1cnc2c(NCc3ccc(-c4ccsc4)cc3)nc(N[C@H]3CC[C@H](N)CC3)nc21
GI50: < 5 nM

Alright, here's another molecule for you.
# GI50 lookup, item CC[C@H](CO)Nc1nc(NCc2ccc(-c3cccc([N+](=O)[O-])c3)cc2)c2ncn(C(C)C)c2n1
20 nM

###

Listing of recorded IC50 by entry.
target.or.system: CyclinB/cdk1 (Homo sapiens)
Construct: Monoclonal antibody against cyclinB (GNS1) is added to the supernatant; endogenous in cells
Sequence (P06493 whole entry): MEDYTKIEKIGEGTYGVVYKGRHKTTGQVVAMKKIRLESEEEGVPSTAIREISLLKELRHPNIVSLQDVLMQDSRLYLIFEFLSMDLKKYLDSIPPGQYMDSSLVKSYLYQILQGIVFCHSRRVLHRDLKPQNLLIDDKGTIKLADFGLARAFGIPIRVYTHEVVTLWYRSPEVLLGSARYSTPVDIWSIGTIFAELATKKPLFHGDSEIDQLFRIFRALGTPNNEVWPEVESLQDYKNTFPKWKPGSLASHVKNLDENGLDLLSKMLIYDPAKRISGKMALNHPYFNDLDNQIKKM
Sequence (P14635 whole entry partner): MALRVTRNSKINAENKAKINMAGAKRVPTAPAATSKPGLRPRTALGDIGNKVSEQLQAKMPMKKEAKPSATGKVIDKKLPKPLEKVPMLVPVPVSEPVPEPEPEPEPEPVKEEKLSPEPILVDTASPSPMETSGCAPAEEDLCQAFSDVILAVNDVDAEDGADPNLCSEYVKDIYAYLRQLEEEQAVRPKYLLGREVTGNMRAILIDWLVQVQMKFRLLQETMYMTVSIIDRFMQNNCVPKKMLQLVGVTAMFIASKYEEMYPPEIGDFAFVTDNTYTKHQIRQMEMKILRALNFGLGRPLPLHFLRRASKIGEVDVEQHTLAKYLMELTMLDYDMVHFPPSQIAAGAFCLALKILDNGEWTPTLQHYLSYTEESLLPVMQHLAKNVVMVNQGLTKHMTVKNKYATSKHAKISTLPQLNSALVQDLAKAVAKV
test.summary: CyclinB/cdk1 protein kinase assay (histone H1 phosphorylation)
measurement.parameters: complex immunopurified from HeLa cells; 15 μM ATP; replicate experiments

Take a look at these entries with their results.
cpd.smiles: CC(C)n1cnc2c(NCc3ccc(-c4ccc(Cl)cc4)cc3)nc(N[C@H]3CC[C@H](N)CC3)nc21
reported: > 10 µM
//
cpd.smiles: CC(=O)N[C@H]1CC[C@H](Nc2nc(NCc3ccc(-c4ccc(F)c(Cl)c4)cc3)c3ncn(C(C)C)c3n2)CC1
reported: > 10 µM

Alright, here's another compound for you.
# IC50 lookup, item CC(C)n1cnc2c(NCc3ccc(-c4ccccc4)cc3)nc(N[C@H]3CC[C@H](O)CC3)nc21
> 10 µM

###

target.or.system: CyclinE/cdk2 (Homo sapiens, UniProt P24941)
test.summary: CyclinE/cdk2 protein kinase assay (histone H1 phosphorylation)
measurement.parameters: IC50 CyclinE/cdk2, complex immunopurified from HeLa cells; 15 μM ATP; replicate experiments
pIC50: −log10 of the molar value.
Would you mind labelling by pIC50? At or over 6 is condition met, under is condition not met.

compound: CC(=O)N[C@H]1CC[C@H](Nc2nc(NCc3ccc(-c4ccc(Cl)cc4)cc3)c3ncn(C(C)C)c3n2)CC1
group: condition not met

compound: CC(C)n1cnc2c(NCc3ccc(-c4ccccc4)cc3)nc(NC[C@H](C)N)nc21
group: condition not met

Does the compound CC(=O)N[C@H]1CC[C@H](Nc2nc(NCc3ccc(-c4ccccn4)nc3)c3ncn(C(C)C)c3n2)CC1 have recorded pIC50 that is 6 or more?
condition met

Does the compound CCn1cnc2c(Nc3cccc(Cl)c3)nc(N[C@H]3CCCC[C@H]3N)nc21 [Compound 125, reference compound] have recorded pIC50 that is 6 or more?
condition met

###

System: MDA-MB-435
test.summary: NCI 60-cell line growth inhibition assay
Type: cell-based
measurement.parameters: Homo sapiens; MDA-MB-435 (Breast)
measurement.name: GI50

cpd.smiles: CC(=O)N[C@H]1CC[C@H](Nc2nc(NCc3ccc(-c4ccccn4)cc3)c3ncn(C(C)C)c3n2)CC1
GI50: < 0.01 µM

cpd.smiles: CC(C)n1cnc2c(NCc3ccc(-c4ccsc4)cc3)nc(N[C@H]3CC[C@H](N)CC3)nc21
GI50: < 0.005 µM

Alright, here's another compound for you.
Param readout = GI50; param system = MDA-MB-435; param query = CC(=O)N[C@H]1CC[C@H](Nc2nc(NCc3ccc(-c4ccccc4)nc3)c3ncn(C(C)C)c3n2)CC1 ; response: value
< 0.01 µM

###

System: MOLT-4
test.summary: NCI 60-cell line growth inhibition assay
Format: cell-based
measurement.parameters: Homo sapiens; MOLT-4 (Leukemia)
measurement.name: GI50

cpd.smiles: CC(=O)N[C@H]1CC[C@H](Nc2nc(NCc3ccc(-c4ccccn4)cc3)c3ncn(C(C)C)c3n2)CC1
target.or.system: MOLT-4
GI50: < 10 nM

# GI50 lookup, item CC(C)n1cnc2c(NCc3ccc(-c4ccsc4)cc3)nc(N[C@H]3CC[C@H](N)CC3)nc21
< 5 nM

# GI50 lookup, item CC(C)n1cnc2c(NCc3ccc(-c4ccccn4)cc3)nc(N[C@H]3CC[C@H](N)CC3)nc21
< 10 nM

###

System: HeLa S-3 cells
test.summary: Inhibition of cell growth of HeLa cells (SRB)
Type: cell-based, human
measurement.parameters: 2 days of treatment, replicate experiments
measurement.name: GI50 (nM)
Numbers only here, please. The scale is nM.

Take a look at these entries with their results.
cpd.smiles: CCCN[C@H]1CC[C@H](Nc2nc(NCCOc3ccc(-c4ccccc4)cc3)c3ncn(C(C)C)c3n2)CC1
result.units: nM
reported: 6000

cpd.smiles: CC(C)n1cnc2c(NCc3ccc(-c4ccc(Cl)s4)cc3)nc(N[C@H]3CC[C@H](N)CC3)nc21
result.units: nM
reported: 500

cpd.smiles: CC(=O)N[C@H]1CC[C@H](Nc2nc(NCc3ccc(-c4ccc(C)s4)cc3)c3ncn(C(C)C)c3n2)CC1
result.units: nM
reported: 600

Param readout = GI50; param system = HeLa S-3 cells; param query = CCCN[C@H]1CC[C@H](Nc2nc(NCc3ccc(-c4cc(C)cc(C)c4)cc3)c3ncn(C(C)C)c3n2)CC1 ; response: value
600

meta.source: patent US20030087906A1
